src = ChEMBL document CHEMBL6153048

Test system: SCC-9
Assay: Antiproliferative activity against human SCC-9 cells assessed as inhibition rate at 0.1 uM incubated for 72 hrs by MTT assay relative to control
Format: functional
Parameter Measured: inhibition at 0.1 µM (%)
Supply the numeric figure in %, leaving out any unit text.

Substance Smiles | inhibition at 0.1 µM (%)
COc1cc2c(OCCOCCOCCN)c3c(c(-c4ccc5c(c4)OCO5)c2cc1OC)C(=O)OC3 | 31.5
COc1cc2c(NC(=O)C(F)(F)[C@]3(O)O[C@H](CO)[C@@H](O)[C@H](O)[C@H]3O)c3c(c(-c4ccc5c(c4)OCO5)c2cc1OC)C(=O)OC3 | 19.4
COc1cc2c(OCCOCCNC(=O)C(F)(F)[C@]3(O)O[C@H](CO)[C@@H](O)[C@H](O)[C@H]3O)c3c(c(-c4ccc5c(c4)OCO5)c2cc1OC)C(=O)OC3 | 13.9
COc1cc2c(O[C@@H]3O[C@@H]4CO[C@@H](c5ccc(C)s5)O[C@H]4[C@H](O)[C@H]3O)c3c(c(-c4ccc5c(c4)OCO5)c2cc1OC)C(=O)OC3 | 46.2
COc1cc2c(O[C@@H]3O[C@@H]4CO[C@@H](c5csc(Br)c5)O[C@H]4[C@H](O)[C@H]3O)c3c(c(-c4ccc5c(c4)OCO5)c2cc1OC)C(=O)OC3 | 72.3
COc1cc2c(O[C@@H]3O[C@@H]4CO[C@@H](c5ccsc5)O[C@H]4[C@H](OC(C)=O)[C@H]3OC(C)=O)c3c(c(-c4ccc5c(c4)OCO5)c2cc1OC)C(=O)OC3 | 45.8
CCC(CC)[C@@H]1OC[C@H]2O[C@@H](Oc3c4c(c(-c5ccc6c(c5)OCO6)c5cc(OC)c(OC)cc35)C(=O)OC4)[C@H](O)[C@@H](O)[C@@H]2O1 | 43.2
COc1cc2c(NC(=O)C(F)(F)[C@]3(O)O[C@@H]4CO[C@@H](c5ccsc5)O[C@H]4[C@H](O)[C@H]3O)c3c(c(-c4ccc5c(c4)OCO5)c2cc1OC)C(=O)OC3 | 16.6
COc1cc2c(OCCOCCN)c3c(c(-c4ccc5c(c4)OCO5)c2cc1OC)C(=O)OC3 | 34.9
COc1cc2c(OCCOCCNC(=O)[C@@H]3CCC(=O)N3)c3c(c(-c4ccc5c(c4)OCO5)c2cc1OC)C(=O)OC3 | 8.65

--- query ---
Q) Query: inhibition at 0.1 µM; subject: COc1cc2c(O[C@@H]3O[C@@H]4CO[C@@H](C5CCCC5)O[C@H]4[C@H](O)[C@H]3O)c3c(c(-c4ccc5c(c4)OCO5)c2cc1OC)C(=O)OC3
A) 42
